Sourced from patent US6821980B1

Test system: Streptococcus pneumoniae 1/1
Assay: MIC against Streptococcus pneumoniae 1/1
Assay type: cell-based
Conditions: Table 2; Streptococcus pneumoniae 1/1, trimethoprim- and penicillin-resistant, serotype 6; clinical isolate; read-out: MIC Sp1/1
measured.parameter: MIC (µg/mL)
The figure you give is taken to be in µg/mL; do not add the unit.

Query MIC for `CCOc1cc(Cc2cnc(N)nc2N)cc(OCC(C)C)c1-c1ccc(OC)cc1` 4

Query MIC for `CCOc1cc(Cc2cnc(N)nc2N)cc(OC2CCC2)c1-c1ccc2c(c1)OCO2` 8

Query MIC for CCOc1cc(Cc2cnc(N)nc2N)cc(OC2CCC(C#N)C2)c1-c1ccc(O)cc1 (centres unmarked) 4

Query MIC for `CCOc1cc(Cc2cnc(N)nc2N)cc(OCC)c1-c1cccc([N+](=O)[O-])c1` 8

Query MIC for `CCOc1cc(Cc2cnc(N)nc2N)cc(OS(=O)(=O)C2CC2)c1-c1ccc(C)c(N)c1` 1

Query MIC for `CCOc1cc(Cc2cnc(N)nc2N)cc(OS(=O)(=O)N(C)C2CC2)c1-c1cc(N)cc(F)c1` 2

Query MIC for `CCOc1cc(Cc2cnc(N)nc2N)cc(OCC(C)C)c1-c1ccc(O)cc1` 2

Query MIC for `CCOc1cc(Cc2cnc(N)nc2N)cc(OCC)c1-c1ccc2c(c1)OCCO2` 2

====

Biological target: purified DHFR of strain Sp1/1 of Streptococcus pneumoniae (Streptococcus pneumoniae serotype 4, UniProt Q54801)
Sequence (Q54801 whole entry I100L, form open): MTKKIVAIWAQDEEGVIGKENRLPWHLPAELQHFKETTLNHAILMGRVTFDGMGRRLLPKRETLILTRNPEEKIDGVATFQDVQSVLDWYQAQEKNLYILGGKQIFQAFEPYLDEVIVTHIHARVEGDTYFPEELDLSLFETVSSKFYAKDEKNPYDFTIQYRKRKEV
Format: biochemical
Details: Table 2; IC50 against purified DHFR of strain Sp1/1
measured.parameter: log10(IC50) (log10 of the value in nM)
Scale: decimal log of IC50, IC50 in nM.

Query log10(IC50) for CCOc1cc(Cc2cnc(N)nc2N)cc(OCCC2CCCCO2)c1-c1cccc(N)c1 (racemic) 1.43

Query log10(IC50) for `CCOc1cc(Cc2cnc(N)nc2N)cc(OCC)c1-c1cccc(N(C)C)c1` 2.18

Query log10(IC50) for `CCOc1cc(Cc2cnc(N)nc2N)cc(OS(=O)(=O)C(C)C)c1-c1ccc(OC(C)=O)cc1` 1.51

Query log10(IC50) for `CCOc1cc(Cc2cnc(N)nc2N)cc(OS(=O)(=O)N2CCOCC2)c1-c1cccc(N)c1` 0.59

Query log10(IC50) for `CCOc1cc(Cc2cnc(N)nc2N)cc(OS(=O)(=O)CC(C)C)c1-c1cccc(N)c1` 0.68

Query log10(IC50) for `CCOc1cc(Cc2cnc(N)nc2N)cc(OCC)c1-c1ccc(OS(C)(=O)=O)cc1` 2.11

====

Exercise: state measured IC50 for each of the compounds provided.
Biological target: purified DHFR of strain Sp1/1 of Streptococcus pneumoniae (Streptococcus pneumoniae serotype 4)
Format: biochemical
Conditions: Table 2; IC50 against purified DHFR of strain Sp1/1
The figure you give is taken to be in nM; do not add the unit.

Query IC50 for `CCOc1cc(Cc2cnc(N)nc2N)cc(OCC)c1-c1ccc(OC)c(OC)c1` 160

Query IC50 for `CCCS(=O)(=O)Oc1cc(Cc2cnc(N)nc2N)cc(OCC)c1-c1ccc(N)c(C)c1` 4.2

Query IC50 for `CCCS(=O)(=O)Oc1cc(Cc2cnc(N)nc2N)cc(OCC)c1-c1ccc(CN2CCOCC2)c(N)c1` 4.6

Query IC50 for `CCOc1cc(Cc2cnc(N)nc2N)cc(OS(=O)(=O)N(C)C)c1-c1ccc(S(C)(=O)=O)cc1` 88

Query IC50 for `CCOc1cc(Cc2cnc(N)nc2N)cc(OS(=O)(=O)N(C)C)c1-c1ccc(OC(C)=O)cc1` 7.9

Query IC50 for `CCOc1cc(Cc2cnc(N)nc2N)cc(OS(=O)(=O)N(C)C2CC2)c1-c1ccc(O)cc1` 9.8

Query IC50 for `CCOc1cc(Cc2cnc(N)nc2N)cc(OCC2CC2)c1-c1ccc(OC)cc1` 30

Query IC50 for `CCOc1cc(Cc2cnc(N)nc2N)cc(OS(=O)(=O)CC(C)(C)C)c1-c1ccc(O)cc1` 4.1
